experiment: A CellTox Green Cytotoxicity Assay to monitor cytotoxicity in HEK293 cells - 0 hour (AID 1224869); settings: CellTox Green fluorescence; series mostly up to 76.8 µM; also: % is scaled to controls: 0 for no effect and ±100 for the full control effect; nearly all actives have a fitted effect of over 50% in size
The source made the active and inactive calls. Calls follow the shape of the dose curve; as a rule, active = well fitted activation curve with a large enough effect in the repeat runs; inconclusive = weak or mixed curves; inactive = flat fitted curve, though single readings scatter.
Experimental readout: cytotoxicity

Study these solved cases before continuing.
COC(C)(OC)OC	inactive
Cc1ccc(C(C)NC(=O)[C@@H](NC(=O)OC(C)C)C(C)C)cc1 (stereo partly specified)	inactive
c1ccc(-c2nn[nH]n2)cc1	inactive
O/N=C/C=N/O	inactive
C=CCSSCCC	inactive
C=CC/C=C/C	inactive
Fc1ccccc1	inactive
O=C(CN1CCNCC1)NC1CCCCC1	inactive

Answer with the recorded cytotoxicity of C=CCOC(=O)CCCCCC only. inactive

Answer with the recorded cytotoxicity of CCn1cc(C(=O)O)c(=O)c2cnc(N3CCCC3)nc21 only. 1.5% [at 6.97 µM] (inactive)

Answer with the recorded cytotoxicity of O=C1c2ccccc2C(=O)c2cc(Cl)ccc21 only. -6.57% [at 6.97 µM] (inactive)

Cited source for all entries: PubChem BioAssay (Tox21)
